Test system: Rattus norvegicus
Assay: Antiinflammatory activity against adjuvant-induced arthritis rat model assessed as inhibition of swelling at 50 mg/kg, po measured on day 14 (reference value: 0%)
Format: functional
Settings: 336 h
Metric Name: inhibition in vivo at 50 mg/kg
Returns: string containing the number followed by the unit.

Some entries whose results are on file:
N#C/C=C(\N)c1ccc(F)cc1 43%
N#C/C=C(\N)c1ccccc1 58%
N#CCC(=O)c1ccsc1 55%
N#CCC(=O)c1ccccc1 51%
N#CCC(=O)c1ccccc1F 51%

Alright, here's another compound for you.
Provide one value: measured inhibition in vivo at 50 mg/kg of N#CCC(=O)c1cccs1
46%

---

Species on record: Rattus norvegicus
Assay: Antiinflammatory activity against adjuvant-induced arthritis in rat assessed as inhibition of swelling
Type: functional, organism-based
Conditions: tested as the 14C-labelled form
Calls of active or inactive are those of the source. The rule behind the calls is not given here.

Compound	Activity
N#CCC(O)c1ccccc1 (centres undefined)	inactive
O=C(O)CC(=O)c1ccccc1	inactive
O=C(O)CNC(=O)c1ccccc1	inactive
O=C(O)C(O)C(O)c1ccccc1 (centres undefined)	inactive

---

Tested on: Rattus norvegicus
Assay: Antiinflammatory activity against adjuvant-induced arthritis rat model assessed as inhibition of swelling at 100 mg/kg, po measured on day 21 (reference value: 0%)
Format: functional
Settings: 504 h
Metric Name: inhibition in vivo at 100 mg/kg (%)
Give a bare numeral; the unit % is implied.

Reference set (6 entries):
N#C/C=C(\N)c1ccsc1 33
N#CCC(=O)c1cccs1 42
N#C/C=C(\N)c1ccc(F)cc1 29
N#CCC(=O)c1ccc(F)cc1 32
N#CCC(=O)c1ccccc1F 48
N#C/C=C(\N)c1cccs1 27

Determine from records and report inhibition in vivo at 100 mg/kg for N#CCC(=O)c1ccccc1
48

Supply measured inhibition in vivo at 100 mg/kg of N#C/C=C(\N)c1ccccc1 in your reply.
54

Please indicate inhibition in vivo at 100 mg/kg recorded for N#CCC(=O)c1ccsc1
29

---

Test system: Rattus norvegicus
Assay: Antiinflammatory activity against adjuvant-induced arthritis rat model assessed as inhibition of swelling at 50 mg/kg, po measured on day 21 (reference value: 0%)
Format: functional
Conditions: 504 h
Overview of reported inhibition in vivo at 50 mg/kg across a group of molecules:
Please state the value followed by its unit.

Take a look at these entries with their results.
N#C/C=C(\N)c1cccs1 23%
N#C/C=C(\N)c1ccsc1 27%
N#CCC(=O)c1ccccc1F 42%

Note down inhibition in vivo at 50 mg/kg recorded for N#C/C=C(\N)c1ccccc1
52%

Kindly indicate its recorded inhibition in vivo at 50 mg/kg. Item: N#CCC(=O)c1ccc(F)cc1
37%

Note down inhibition in vivo at 50 mg/kg recorded for N#CCC(=O)c1ccsc1
40%

Using the record for N#C/C=C(\N)c1ccc(F)cc1 , state its measured inhibition in vivo at 50 mg/kg.
25%

# return recorded inhibition in vivo at 50 mg/kg for input N#CCC(=O)c1ccccc1
42%

Quickly give me recorded inhibition in vivo at 50 mg/kg for N#CCC(=O)c1cccs1
18%

---

Species: Cavia porcellus
Assay: Antiinflammatory activity against UV-induced erythema in guinea pig
Format: functional, organism-based
Active and inactive are the calls of the source. No cut-off for these calls is given here.
Lab note: assign the record to one of active, inactive

N#C/C=C(\N)c1cccs1 inactive

State the result this test recorded for N#CCC(=O)c1cccs1 .
inactive

Short answer needed: outcome of this test for N#C/C=C(\N)c1ccc(F)cc1 ?
inactive

Please let me know the test result on file for N#C/C=C(\N)c1ccccc1 .
active

Recorded call for N#C/C=C(\N)c1ccsc1 ?
inactive

For N#CCC(=O)c1ccccc1 , which call appears in the assay record?
inactive

Which outcome was assigned to N#CCC(=O)c1ccccc1F in this test?
inactive

Short answer needed: outcome of this test for N#CCC(=O)c1ccc(F)cc1 ?
inactive

GET /call?item= N#CCC(=O)c1ccsc1 returns the recorded outcome of this test.
inactive
